tested on: EKVX NSCLC; assay: NCI tumour cell line growth inhibition, 48 h
Items are presented alongside their recorded TGI.
Assay Readout: TGI

• COc1ccc(C2c3cc4c(cc3OC(NCCO)C2C)OCO4)cc1 (stereo not given) = 92.5 µM
• C/C(=N\Nc1nc2ccccc2s1)c1ccc2ccccc2n1 = > 100 µM
• Cc1cc(C)nc(NS(=O)(=O)c2ccc(NC(=O)c3cccc4c(NNc5ccc(S(=O)(=O)N=C(N)N)cc5)c5ccccc5nc34)cc2)n1 = > 50 µM
• COc1cccc2c(=O)c3c(sc12)c(NCCCNCCO)nc1ccccc13 = 3.05 µM
• CC1(C)CC(C#Cc2ccccc2)CC(C)(C)N1O = > 100 µM
• O=[N+]([O-])c1ccc(-c2cc3c(Nc4ccc(Cl)c(C(F)(F)F)c4)ncnc3s2)cc1 = > 100 µM
• C/C1=C\CC[C@@](C)(O)[C@@H]2C[C@H](CC/C(C)=C/CC1)C1(CC1)C(=O)O2 = > 100 µM
• C[C@]12C/C(=C/O)C(=O)C(O)=C1CC[C@@H]1C2CC[C@@]2(C)C1CC[C@@H]2O (stereo not given in full) = 72.8 µM
• Cc1c(-c2ccccc2)[nH]n(C2=NCCN2)c1=O = > 100 µM
• COP(=O)(OC)C(Nc1ccc(Cc2ccc(NC(c3ccco3)P(=O)(OC)OC)cc2)cc1)c1ccco1 (stereo not given) = 94.4 µM
• O=[N+]([O-])/C(Cl)=C(\NCCN/C(C(Cl)=C(Cl)Cl)=C(/Cl)[N+](=O)[O-])C(Cl)=C(Cl)Cl = > 100 µM
• COc1ccc(C2Oc3c(c(O)cc4c3[C@H](c3ccc(O)cc3O)[C@H](O)C(c3ccc(O)c(O)c3)O4)C[C@@H]2O)cc1O (stereo not given in full) = > 100 µM
• CCOC(=O)C(NC(=O)Nc1ccc(Cl)cc1)(OC)C(F)(F)F (stereo not given) = > 100 µM
• CCCCCCCCCCCCCCCCCCOCC(COCCOCC[N+]1(CCCCCC(=O)[O-])CCCC1)Oc1ncccn1 (stereo not given) = 31.3 µM
• C=C1C2Oc3ccccc3C1N(c1ccccc1)O2 (stereo not given) = > 100 µM

* * *

tested on: HS 578T breast; assay: NCI tumour cell line growth inhibition, 48 h; in the data active means GI50 below about 0.43 µM; inactive means the rest
Labels: active, inactive

- Clc1ccc2c(c1)N(c1ncnc3ccc(-c4cnc5[nH]ncc5c4)cc13)CC2: active
- CSc1ccc(N(C)c2nc(C)nc3c2CCC3)cc1: active
- O=C(c1cccs1)C1NO[N+]([O-])=C1c1cccs1 (centres undefined): inactive
- OCc1ccc(N2CCOCC2)cc1Cl: inactive
- COc1ccc(C2=C(N3CCc4ccccc43)C(=O)NC2=O)cc1: inactive
- N=C(N)c1ccc(-c2ccc(-c3cc(Cl)cc(Cl)c3)s2)s1: inactive
- [2H]c1nc(=Nc2cc(NC(=O)C=C)c(N(C)CCN(C)C)cc2OC)[nH]c(-c2cn(C([2H])([2H])[2H])c3ccccc23)c1[2H]: inactive
- O=C(NCCN1CCNCC1)c1ccc(Nc2nc3ccccc3c3occc23)cc1: inactive
- COc1cc2nc(-c3ccc(C(F)(F)F)cc3)cc(OCCCN3CCCC3)c2cc1OC: inactive
- CCNCCNc1cc(-c2ccc(C#N)cc2)c(C#N)c2nc3ccccc3n12: inactive
- COc1ccc(Nc2nccc(N3CCN(c4c5ccc(Cl)cc5nc5ccc(OC)cc45)CC3)n2)cc1: inactive
- Fc1ccc2nc(-c3cc(-c4ccc5c(c4)OCO5)n[nH]3)[nH]c2c1: inactive
- O=C(/C=C/c1cccc(O)c1)c1cccc(-n2cc(-c3ccc4ccccc4c3)[nH]c2=O)c1: inactive
- CC(C)Oc1ccc(C(=O)Cn2ccnc2)cc1-n1c(CN2CCN(C(=O)COc3ccc(Cl)cc3)CC2)nc2ccccc2c1=O: inactive

* * *

system: NCI-H23 lung; test: NCI tumour cell line growth inhibition, 48 h; in the data active = GI50 below about 0.43 µM; inactive = the rest
Possible outcomes: yes (active), no (inactive)

• O=C1c2ccccc2-c2c1c1ccccc1c(=O)n2CCNCCn1c2c(c3ccccc3c1=O)C(=O)c1ccccc1-2 = no
• [2H]c1nc(=Nc2cc(NC(=O)C=C)c(N(C)CCN(C)C)cc2OC)[nH]c(-c2cn(C([2H])([2H])[2H])c3ccccc23)c1[2H] = no
• CC1c2ccccc2N=C2SC(=S)N3CCN=C3N21 (stereo not drawn) = no
• c1ccc(-c2nc(N3CCCNCC3)c3nc(-c4ccccc4)oc3n2)cc1 = no
• C/C1=C\CC[C@@](C)(O)[C@@H]2C[C@H](CC/C(C)=C/CC1)C1(CC1)C(=O)O2 = no
• COC(=O)c1ccc2c(c1)C(=O)c1c-2n(CCCN=[N+]=[N-])c(=O)c2cc([N+](=O)[O-])ccc12 = no
• COc1cccc2c(=O)c3c(sc12)c(NCCCNCCO)nc1ccccc13 = no
• CCN(CC)c1ccc(/C=C/C2=[N+](C)c3ccccc3C2(C)C)c(C)c1 = yes

* * *

test system: A549 NSCLC; assay: NCI tumour cell line growth inhibition, 48 h; in the data active = GI50 below about 0.43 µM; inactive = the rest
Classes used: active, inactive

- O=C1/C(=C/c2ccc([N+](=O)[O-])cc2)COc2ccc(O)cc21: inactive
- CCn1c(-c2nonc2N)nc2ccncc21: inactive
- CCCCCCCCCCCCCC[n+]1cccc(C(N)=O)c1: inactive
- OCc1ccc(N2CCOCC2)cc1Cl: inactive
- CSc1ccc(N(C)c2nc(C)nc3c2CCC3)cc1: active
- Nc1cc(-c2ccc(Cl)cc2)nn1-c1nnc(/C=C/c2ccco2)c(=O)[nH]1: inactive
- Clc1ccc2c(c1)N(c1ncnc3ccc(-c4cnc5[nH]ncc5c4)cc13)CC2: active
- COc1ccc(-c2cnoc2-c2cc(OC)c3c(c2)OCCO3)cc1: active

* * *

test system: SF-268 CNS; assay: NCI tumour cell line growth inhibition, 48 h
Mark condition not met for TGI values under 30 µM, and condition met for everything at or above.

- O=C1CS(=O)(=O)C(c2cccc(Oc3ccccc3)c2)N1c1cc(Cl)ccc1Cl (stereo unspecified): condition met
- CCOC(=O)C1(Cc2ccc3ccccc3c2)CCCCC(=O)N1 (stereo unspecified): condition met
- CCOC(=O)c1c(SCCN2CCOCC2)n(-c2ccccc2)c(=S)n(-c2ccccc2)c1=O: condition met
- Nc1cc(-c2ccc(Cl)cc2)nn1-c1nnc(/C=C/c2ccco2)c(=O)[nH]1: condition met
- O=S1(=O)c2cnccc2NC(=NCc2ccccc2)N1c1ccccc1: condition met
- COc1cc(/C=C2\CCC(C)/C(=C\c3cc(OC)c(OC)c(OC)c3)C2=O)cc(OC)c1OC (stereo unspecified): condition met
- Clc1nncc2sc(-c3ccccc3)nc12: condition met
- Cc1c2ccncc2c(C)c2c1[nH]c1ccc(O)c(OCC(F)(F)F)c12: condition not met
- CC1=NN(C(=O)c2ccncc2)C(=O)C1N=Nc1ccc(F)cc1 (stereo unspecified): condition met
- Cc1cccc(/C(Br)=C2/OC(=O)c3ccccc32)c1: condition met
- C=CC(=O)N1C/C(=C\c2ccc(Cl)cc2)C(=O)/C(=C/c2ccc(Cl)cc2)C1: condition not met
- Clc1ccc(/C(=C\c2ccccc2)Cn2ccnc2)cc1: condition met
- O=C1C2=C(CCC2)Nc2cccc3ncn1c23: condition met
- C=C1C(=O)C23C(O)CC4C5(C)CCCC4(C(O)OC5)C2C(OC(C)=O)CC1C3O (stereo unspecified): condition met
- O=[N+]([O-])c1ccc2c(c1)c(N=NC(=S)Nc1ccc(Cl)cc1)c(O)n2CN1CCOCC1: condition not met
- Fc1ccc2nc(-c3cc(-c4ccc5c(c4)OCO5)n[nH]3)[nH]c2c1: condition met
- CC(C)Oc1ccc(C(=O)Cn2ccnc2)cc1-n1c(CN2CCN(C(=O)COc3ccc(Cl)cc3)CC2)nc2ccccc2c1=O: condition met
- O=C(CC1(O)C(=O)Nc2c(Cl)ccc(Cl)c21)c1ccc(Cl)cc1Cl (stereo unspecified): condition met
- O=C(CC(C(=O)c1ccco1)c1ccco1)c1ccco1 (stereo unspecified): condition met

* * *

system: SNB-75 CNS; test: NCI tumour cell line growth inhibition, 48 h; in the data active = GI50 below about 0.43 µM; inactive = the rest
Outcomes: active, inactive

• COc1cccc2c(=O)c3c(sc12)c(NCCCNCCO)nc1ccccc13 = inactive
• CC(C)[O-].CC(C)[O-].CN(CCN(C)Cc1cc(F)cc(F)c1[O-])Cc1cc(F)cc(F)c1[O-].[Ti+4] = inactive
• CC1c2ccccc2N=C2SC(=S)N3CCN=C3N21 (stereo not given) = inactive
• c1cnn2ncc(-c3ccnc(Nc4ccc5c(c4)OCCO5)n3)c2c1 = active
• COc1ccc(-c2cnoc2-c2cc(OC)c3c(c2)OCCO3)cc1 = active

* * *

# key: entry, value: TGI
tested on: MCF7 breast; assay: NCI tumour cell line growth inhibition, 48 h
Assay Readout: TGI

* CC(C)/C(Cl)=N/OC(=O)Nc1ccc(OC(F)(F)F)cc1 | 28 µM
* CCOC(=O)C1CCC(=O)N1C(=O)c1ccccc1Cl (configuration not stated) | > 100 µM
* COc1cccc2c(=O)c3c(sc12)c(NCCCNCCO)nc1ccccc13 | 3 µM
* COc1cc(/C=C2\CCC(C)/C(=C\c3cc(OC)c(OC)c(OC)c3)C2=O)cc(OC)c1OC (configuration not stated) | > 100 µM
* O=C1c2ccccc2-c2c1c1c(NCCCO)nc3ccccc3c1n2Cc1ccccc1 | 31 µM
* C=CC1=C(C)C2=NC1=CC1=NC(=CC3=C(C)C4=C(O)[C@H](C(=O)OC)C(=C5NC(=C2)[C@@H](C)[C@@H]5CCC(=O)O)C4=N3)C(CC)=C1C | 11 µM
* O=C1C2=Nc3ccccc3C(O)(C(=O)O)N2c2ccccc21 (configuration not stated) | 46.8 µM
* O=C(Cl)C1=C(c2ccccc2)C1c1ccccc1 (configuration not stated) | > 100 µM
* O=[N+]([O-])c1ccc(-c2cc3c(Nc4ccc(Cl)c(C(F)(F)F)c4)ncnc3s2)cc1 | > 100 µM
* O=C(O)CN(CC(=O)O)C(C(=O)O)c1ccccc1 (configuration not stated) | > 100 µM
* CCOC(=O)NC(Nc1c(F)c(F)c(F)c(F)c1F)(C(F)(F)F)C(F)(F)F | > 100 µM
* CC(=Nc1ccc(S(N)(=O)=O)cc1)c1c(O)[nH]c2ccccc12 | > 25 µM
* CC(=O)n1nc(-c2ccccc2)n(/N=C/c2ccc([N+](=O)[O-])o2)c1=O | 13.8 µM
* Cc1c(-c2ccccc2)[nH]n(C2=NCCN2)c1=O | > 100 µM
* COc1ccc(F)c(F)c1C(=O)c1cnc(NC2CCN(S(C)(=O)=O)CC2)nc1N | > 100 µM
* OCc1ccc(N2CCOCC2)cc1Cl | > 100 µM
* O=C1C(C(O)(C(F)(F)F)C(F)(F)F)CCC1C(O)(C(F)(F)F)C(F)(F)F (configuration not stated) | 2.26 µM
* O=C1c2cccc3cccc(c23)C(=O)N1O | > 100 µM
* CCOC(=O)C1=CC(C)(C(=O)OCC)Nc2c(nc(N)[nH]c2=O)N1 (configuration not stated) | > 10 µM
* CCN1C(=O)C(=C/C=C/c2ccc(N(CC)CC)cc2)C(=O)N(CC)C1=S | > 100 µM
* Clc1ccc(/C(=C\c2ccccc2)Cn2ccnc2)cc1 | 44.5 µM
* Cc1ccc(NC(=O)/C(Cc2cc(=O)oc3cc(O)ccc23)=N\NC(=O)C[N+](C)(C)C)cc1C | > 100 µM

Recorded values, source PubChem BioAssay (NCI).
